Tgt: T1, human transferrin receptor (BIAcore, construct not stated) (human, UniProt P02786 89-760)
T1 construct: also called huTfR
Experiment description: SPR, 25 C
Please respond with reported koff for every item in the list.

Consider the worked cases shown below.
>  <Binder>
clone 299 VH 18 / VL 9-NYA (antibody, V domains shown) VH: QVQLQESGPGLVKPSQTLSLTCTVSGFSLSSYAMSWIRQHPGKGLEWIGYIWSGGSTDYAPSLKSRVTISVDTSKNQFSLKLSSVTAADTAVYYCARRYGTSYPDYGDANGFDPWGQGTLVTVSS VL: AIQLTQSPSSLSASVGDRVTITCRASQSISSYLAWYQQKPGKAPKLLIYRASTLASGVPSRFSGSGSGTDFTLTISSLQPEDFATYYCQQNYASSNVDNTFGGGTKVEIK

>  <koff>
0.00221 s⁻¹

$$$$
>  <Binder>
clone 299 VH 0 (rb) / VL 14 (antibody, V domains shown) VH: QSMEESGGRLVTPGTPLTLTCTVSGFSLSSYAMSWVRQAPGKGLEWIGYIWSGGSTDYASWAKGRFTISKTSTTVDLKITSPTTEDTATYFCARRYGTSYPDYGDANGFDPWGPGTLVTVSS VL: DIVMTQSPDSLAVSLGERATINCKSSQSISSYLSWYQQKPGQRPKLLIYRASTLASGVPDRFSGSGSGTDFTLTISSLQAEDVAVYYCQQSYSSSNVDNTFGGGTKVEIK

>  <koff>
0.00178 s⁻¹

$$$$
>  <Binder>
clone 299 VH 13 / VL 9-NYA (antibody, V domains shown) VH: QVQLQESGPGLVKPSETLSLTCTVSGFSLSSYAMSWIRQPPGKGLEWIGYIWSGGSTDYNPSLKSRVTISVDTSKNQVSLKLSSVTAADTAVYYCARRYGTSYPDYGDANGFDPWGQGTLVTVSS VL: AIQLTQSPSSLSASVGDRVTITCRASQSISSYLAWYQQKPGKAPKLLIYRASTLASGVPSRFSGSGSGTDFTLTISSLQPEDFATYYCQQNYASSNVDNTFGGGTKVEIK

>  <koff>
0.00139 s⁻¹

$$$$

State the recorded koff for every item in the following list.
1. clone 299 VH 15 / VL 9-NYA (antibody, V domains shown) VH: QQLQESGPGLVKPSETLSLTCTVSGFSLSSYAMSWVRQPPGKGLEWIGYIWSGGSTDYNPSLKSRVTISVDTSKNQVSLKLSSVTAADTAVYYCARRYGTSYPDYGDANGFDPWGQGTLVTVSS VL: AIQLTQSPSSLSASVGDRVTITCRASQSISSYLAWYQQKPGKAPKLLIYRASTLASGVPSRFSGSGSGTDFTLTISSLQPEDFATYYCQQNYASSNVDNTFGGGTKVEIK
2. clone 299 VH 11 / VL 0 (rb) (antibody, V domains shown) VH: QQLLESGGGLVQPGGSLRLSCAASGFSLSSYAMSWVRQAPGKGLEWVGYIWSGGSTDYADSVKGRFTISRDNSKNTLYLQMNSLRAEDTAVYYCARRYGTSYPDYGDANGFDPWGQGTLVTVSS VL: AYDMTQTPASVEVAVGGTVTIKCQASQSISSYLSWYQQKPGQRPKLLIYRASTLASGVSSRFKGSGSGTQFTLTISGVECADAATYYCQQCYSSSNVDNTFGGGTEVVVK

Result:
1. 0.00142 s⁻¹
2. 0.000905 s⁻¹

State the recorded koff for every item in the following list.
1. clone 299 VH 0 (rb) / VL 8 (antibody, V domains shown) VH: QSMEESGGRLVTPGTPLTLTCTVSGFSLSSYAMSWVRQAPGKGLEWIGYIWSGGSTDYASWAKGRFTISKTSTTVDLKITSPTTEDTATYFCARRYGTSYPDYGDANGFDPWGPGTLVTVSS VL: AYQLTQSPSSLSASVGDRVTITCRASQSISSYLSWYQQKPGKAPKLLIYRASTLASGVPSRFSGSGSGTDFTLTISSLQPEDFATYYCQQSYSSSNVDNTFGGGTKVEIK
2. clone 299 VH 22 / VL 0 (rb) (antibody, V domains shown) VH: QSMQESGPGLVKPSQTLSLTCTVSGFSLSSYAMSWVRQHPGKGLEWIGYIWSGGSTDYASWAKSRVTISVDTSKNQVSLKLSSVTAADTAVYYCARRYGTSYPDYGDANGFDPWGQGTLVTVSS VL: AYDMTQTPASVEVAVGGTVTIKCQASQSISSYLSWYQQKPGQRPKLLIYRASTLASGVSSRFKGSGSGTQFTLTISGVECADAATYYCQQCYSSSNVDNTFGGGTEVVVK
3. clone 299 VH 21 / VL 0 (rb) (antibody, V domains shown) VH: QSMQESGPGLVKPSQTLSLTCTVSGFSLSSYAMSWIRQHPGKGLEWIGYIWSGGSTDYASWAKSRVTISVDTSKNQVSLKLSSVTAADTAVYYCARRYGTSYPDYGDANGFDPWGQGTLVTVSS VL: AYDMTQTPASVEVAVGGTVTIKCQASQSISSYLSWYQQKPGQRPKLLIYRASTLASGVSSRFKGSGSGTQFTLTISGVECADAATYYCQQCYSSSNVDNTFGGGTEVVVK
4. clone 299 VH 19 / VL 0 (rb) (antibody, V domains shown) VH: QSMQESGPGLVKPSQTLSLTCTVSGFSLSSYAMSWIRQHPGKGLEWIGYIWSGGSTDYAPSLKSRVTISVDTSKNQFSLKLSSVTAADTAVYYCARRYGTSYPDYGDANGFDPWGQGTLVTVSS VL: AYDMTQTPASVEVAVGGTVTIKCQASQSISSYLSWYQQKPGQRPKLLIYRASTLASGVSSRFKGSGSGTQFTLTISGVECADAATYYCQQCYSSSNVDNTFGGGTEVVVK
5. clone 299 VH 19 / VL 9-NYA (antibody, V domains shown) VH: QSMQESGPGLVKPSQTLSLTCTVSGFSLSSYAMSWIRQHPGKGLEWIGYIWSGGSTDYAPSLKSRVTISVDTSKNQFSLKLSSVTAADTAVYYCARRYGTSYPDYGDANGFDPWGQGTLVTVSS VL: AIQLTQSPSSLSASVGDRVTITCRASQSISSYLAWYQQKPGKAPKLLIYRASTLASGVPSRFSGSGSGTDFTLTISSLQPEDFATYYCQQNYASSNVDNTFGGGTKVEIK

Result:
1: 0.00139 s⁻¹; 2: 0.000506 s⁻¹; 3: 0.000565 s⁻¹; 4: 0.001 s⁻¹; 5: 0.00617 s⁻¹
